System: U373
TEST: Repeated dose temozolomide cytotoxicity
Type: cell-based, human
CONDITION: Homo sapiens, U373 MG; U373; DAY 4 of repeated daily 24 hour doses; with BG
PROPERTY MEASURED: pIC50
Note: pIC50 values are expressed as the negative base-10 logarithm of concentration in M.

Incoming: Look up pIC50: Cn1nnc2c(C(N)=O)ncn2c1=O [temozolomide]
Outgoing: 4.74

###

Tested on: MAWI
TEST: Repeated dose temozolomide cytotoxicity
Assay type: cell-based
CONDITION: Homo sapiens, 96 h, DAY 4, without BG
Experimental: Cell lines were routinely grown as monolayers in DMEM supplemented with 10% foetal calf serum, 25mM HEPES, glutamine and penicillin/streptomycin. Cytotoxicity studies were carried out in HEPES-free medium in a 5% CO2 atmosphere. 750-1000 cells/well were plated in 96 well plates and, after overnight incubation, were treated for 2 hours with or without 33 µM BG. Temozolomide or CCNU was then added for 1 hour in the same medium, the final DMSO concentration not exceeding 1%. […]
PROPERTY MEASURED: pIC50
Note: pIC50 values are expressed as the negative base-10 logarithm of concentration in M.

Incoming: Look up pIC50: Cn1nnc2c(C(N)=O)ncn2c1=O [temozolomide]
Outgoing: 3.42

###

System: MAWI
TEST: Single dose cytotoxicity (sulphorhodamine protein assay)
Type: cell-based, human
CONDITION: Homo sapiens, MAWI (colo-rectal), 1 hour drug, 2 hours 33 µM BG before
PROPERTY MEASURED: IC50 (µM)
Kindly provide the numeric value in µM only, without the unit symbol.

Incoming: Look up IC50: Cn1nnc2c(C(N)=O)ncn2c1=O [temozolomide]
Outgoing: 335

Incoming: Look up IC50: O=NN(CCCl)C(=O)NC1CCCCC1 [CCNU, lomustine]
Outgoing: 30

###

TARGET ENTITY: O^6-alkylguanine DNA alkyltransferase (ATase) (Homo sapiens)
Construct: endogenous in cells; host or cells: human tumour cell lines U373, MCF-7, LOVO, MAWI (extracts of treated cells)
TEST: O^6-alkylguanine DNA alkyltransferase assay of treated cells
Type: cell-based
CONDITION: LOVO; three-hour incubation; read-out: concentration causing 50% reduction in ATase content
PROPERTY MEASURED: IC50

Incoming: Look up IC50: Cn1nnc2c(C(N)=O)ncn2c1=O [temozolomide]
Outgoing: 50 to 100 µM

###

TARGET ENTITY: O^6-alkylguanine DNA alkyltransferase (ATase) (Homo sapiens)
Construct: endogenous in cells; host or cells: human tumour cell lines U373, MCF-7, LOVO, MAWI (extracts of treated cells)
TEST: O^6-alkylguanine DNA alkyltransferase assay of treated cells
Format: cell-based
CONDITION: U373; three-hour incubation; read-out: concentration causing 50% reduction in ATase content
pIC50: −log10 of the molar value.
PROPERTY MEASURED: pIC50

Incoming: Look up pIC50: Cn1nnc2c(C(N)=O)ncn2c1=O [temozolomide]
Outgoing: 4.00 to 4.30

###

Tested on: MAWI
TEST: Repeated dose temozolomide cytotoxicity
Format: cell-based
CONDITION: Homo sapiens, 120 h, DAY 5, with BG
PROPERTY MEASURED: IC50

Incoming: Look up IC50: Cn1nnc2c(C(N)=O)ncn2c1=O [temozolomide]
Outgoing: 1000 nM

###

TARGET ENTITY: O^6-alkylguanine DNA alkyltransferase (ATase) (Homo sapiens, UniProt P16455)
Construct: endogenous in cells; host or cells: human tumour cell lines U373, MCF-7, LOVO, MAWI (extracts of treated cells)
Sequence (P16455 whole entry): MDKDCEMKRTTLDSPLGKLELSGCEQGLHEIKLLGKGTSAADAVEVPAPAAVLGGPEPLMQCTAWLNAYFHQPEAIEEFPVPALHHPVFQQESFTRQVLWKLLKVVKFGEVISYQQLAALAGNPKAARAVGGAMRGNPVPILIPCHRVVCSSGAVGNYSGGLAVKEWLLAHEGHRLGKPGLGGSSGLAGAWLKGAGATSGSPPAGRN
TEST: O^6-alkylguanine DNA alkyltransferase assay of treated cells
Assay type: cell-based
CONDITION: MCF-7; three-hour incubation; read-out: concentration causing 50% reduction in ATase content
PROPERTY MEASURED: IC50

Incoming: Value wanted: IC50 (O^6-alkylguanine DNA alkyltransferase (ATase) (Homo sapiens, UniProt P16455)) of entry Cn1nnc2c(C(N)=O)ncn2c1=O [temozolomide]
Outgoing: 50 to 100 µM
